Hey, just so you know, these numbers are from ChEMBL document CHEMBL5550092.

# test-system: Urease subunit alpha/Urease subunit beta (Helicobacter pylori (strain ATCC 700392 / 26695) (Campylobacterpylori), UniProt P69996)
# Sequence (P69996 whole entry): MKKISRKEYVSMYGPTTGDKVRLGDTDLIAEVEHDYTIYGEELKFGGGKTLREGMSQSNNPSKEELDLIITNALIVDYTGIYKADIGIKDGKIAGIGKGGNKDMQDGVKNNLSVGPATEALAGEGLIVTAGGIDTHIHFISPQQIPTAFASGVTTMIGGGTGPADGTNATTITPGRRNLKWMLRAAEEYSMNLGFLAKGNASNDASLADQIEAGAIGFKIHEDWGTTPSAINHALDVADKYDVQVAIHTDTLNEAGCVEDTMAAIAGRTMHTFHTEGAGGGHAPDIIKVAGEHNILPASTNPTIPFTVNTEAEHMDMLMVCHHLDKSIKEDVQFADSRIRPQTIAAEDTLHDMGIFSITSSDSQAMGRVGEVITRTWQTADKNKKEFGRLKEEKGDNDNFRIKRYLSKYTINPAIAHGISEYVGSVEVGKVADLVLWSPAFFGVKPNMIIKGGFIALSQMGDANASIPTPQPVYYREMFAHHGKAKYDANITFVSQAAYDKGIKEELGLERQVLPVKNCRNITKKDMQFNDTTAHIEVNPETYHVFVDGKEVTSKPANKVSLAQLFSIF
# Sequence (P14916 whole entry, further chain): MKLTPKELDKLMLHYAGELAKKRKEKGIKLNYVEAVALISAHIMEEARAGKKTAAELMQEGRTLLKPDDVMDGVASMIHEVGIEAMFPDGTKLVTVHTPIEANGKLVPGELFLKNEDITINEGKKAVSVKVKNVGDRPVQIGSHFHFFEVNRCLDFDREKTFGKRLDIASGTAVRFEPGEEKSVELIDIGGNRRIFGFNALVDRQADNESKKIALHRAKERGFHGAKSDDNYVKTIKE
# test-method-notes: Inhibition of Helicobacter pylori urease using urea as substrate assessed as decrease in ammonia production incubated for 0.5 hrs by indole phenol method
test-readout: IC50 (µM)

Worked set:
>>> print(df.to_string())
                                   molecule  recorded_number
0  CCc1cccc(NCC(O)c2n[nH]c(=O)[nH]2)c1 (configuration not stated)             90.5
1  CCOc1ccc(NCC(O)c2n[nH]c(=O)[nH]2)cc1 (configuration not stated)             46.8
2  O=C1OC(c2n[nH]c(=O)o2)CN1c1ccc(OCc2ccccc2)cc1 (configuration not stated)             73.1
3  O=c1[nH]nc(C(O)CNc2ccc(OCc3ccccc3)cc2)[nH]1 (configuration not stated)             21.2
4  CCOc1ccc(N2CC(Cc3n[nH]c(=O)o3)OC2=O)cc1 (configuration not stated)             61.3
5  Cc1ccc(N2CC(c3n[nH]c(=O)o3)OC2=O)c(C)c1 (configuration not stated)             98.7
6  CCOc1ccccc1NCC(O)c1n[nH]c(=O)[nH]1 (configuration not stated)             38.8
7  O=c1[nH]nc(C(O)CNc2cccc(OCc3ccccc3)c2)[nH]1 (configuration not stated)             6.31

P = CCc1cccc(N2CC(c3n[nH]c(=O)o3)OC2=O)c1 (configuration not stated)
Q = Cc1ccc(NCC(O)c2n[nH]c(=O)[nH]2)c(C)c1 (configuration not stated)
Which gives the smaller IC50 number: P or Q ? Refer to your chosen item by its label in the answer.
Q

a = Cc1ccccc1N1CC(c2n[nH]c(=O)o2)OC1=O (configuration not stated)
b = Cc1cccc(NCC(O)c2n[nH]c(=O)[nH]2)c1 (configuration not stated)
Please tell me which of the two, a or b , has the higher reported IC50 value. Kindly give the label for the entry you pick.
a
(a: 186 µM, b: 108 µM)
